Target: UniProtKB P05187
Sequence (P05187 whole entry, looked up): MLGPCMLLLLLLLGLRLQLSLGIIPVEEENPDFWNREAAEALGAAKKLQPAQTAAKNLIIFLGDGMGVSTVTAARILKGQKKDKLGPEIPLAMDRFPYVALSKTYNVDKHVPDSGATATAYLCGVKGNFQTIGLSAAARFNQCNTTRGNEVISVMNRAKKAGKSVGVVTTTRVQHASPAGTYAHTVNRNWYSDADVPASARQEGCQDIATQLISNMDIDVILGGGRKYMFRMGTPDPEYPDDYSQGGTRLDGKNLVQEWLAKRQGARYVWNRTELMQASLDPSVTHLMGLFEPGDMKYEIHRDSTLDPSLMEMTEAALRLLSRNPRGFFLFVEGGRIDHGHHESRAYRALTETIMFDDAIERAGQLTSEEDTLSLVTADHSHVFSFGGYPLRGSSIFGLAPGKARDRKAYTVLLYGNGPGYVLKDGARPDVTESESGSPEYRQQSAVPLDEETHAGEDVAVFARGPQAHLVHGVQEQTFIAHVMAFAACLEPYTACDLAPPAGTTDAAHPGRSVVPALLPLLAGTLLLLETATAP
Test: PLAP enzyme activators, biochemical, luminescence, HTS (AID 696)
Details: purified PLAP enzyme, luminescent substrate read-out
pEC50: −log10 of the molar value.
pEC50: recorded values
METRIC NAME: pEC50

>  <COMPOUND>
CC1Cc2ccccc2N1C(=O)CSc1nnc(Cc2ccccc2)n1CCc1ccccc1 (stereo not given)

>  <MEAS VALUE>
4.06

$$$$
>  <COMPOUND>
O=P(CCCCCCCCCP(=O)(c1ccccc1)c1ccccc1)(c1ccccc1)c1ccccc1

>  <MEAS VALUE>
4.00

$$$$
>  <COMPOUND>
c1ccc(CSCCc2ccncc2)cc1

>  <MEAS VALUE>
4.17

$$$$
>  <COMPOUND>
CC(C)N=c1scc(-c2ccco2)n1/N=C/c1ccc(O)c(O)c1

>  <MEAS VALUE>
4.32

$$$$
>  <COMPOUND>
Cc1ccc(C)c(NC(=S)NC(NC(=O)Cc2cccc3ccccc23)C(Cl)(Cl)Cl)c1 (stereo not given)

>  <MEAS VALUE>
4.20

$$$$
